Test system: HeLa Kyoto
experimental details: thermal stability score vs G1/S (z-score of summed log2 fold changes over temperatures); higher = more thermally stable than in G1/S
condition description: cell cycle stage: early G1 (4.5 h after nocodazole release)
thermal stability score below 0.02 gives Condition not met; thermal stability score at or above it gives Condition met.

Look over these answered cases.
biosequence="MAACTARRALAVGSRWWSRSLTGARWPRPLCAAAGAGAFSPASTTTTRRHLSSRNRPEGKVLETVGVFEVPKQNGKYETGQLFLHSIFGYRGVVLFPWQARLYDRDVASAAPEKAENPAGHGSKEVKGKTHTYYQVLIDARDCPHISQRSQTEAVTFLANHDDSRALYAIPGLDYVSHEDILPYTSTDQVPIQHELFERFLLYDQTKAPPFVARETLRAWQEKNHPWLELSDVHRETTENIRVTVIPFYMGMREAQNSHVYWWRYCIRLENLDSDVVQLRERHWRIFSLSGTLETVRGRGVVGREPVLSKEQPAFQYSSHVSLQASSGHMWGTFRFERPDGSHFDVRIPPFSLESNKDEKTPPSGLHW [POLDIP2]" qualitative_label="Condition met"
biosequence="MRKVVLITGASSGIGLALCKRLLAEDDELHLCLACRNMSKAEAVCAALLASHPTAEVTIVQVDVSNLQSVFRASKELKQRFQRLDCIYLNAGIMPNPQLNIKALFFGLFSRKVIHMFSTAEGLLTQGDKITADGLQEVFETNVFGHFILIRELEPLLCHSDNPSQLIWTSSRSARKSNFSLEDFQHSKGKEPYSSSKYATDLLSVALNRNFNQQGLYSNVACPGTALTNLTYGILPPFIWTLLMPAILLLRFFANAFTLTPYNGTEALVWLFHQKPESLNPLIKYLSATTGFGRNYIMTQKMDLDEDTAEKFYQKLLELEKHIRVTIQKTDNQARLSGSCL [HSD17B7]" qualitative_label="Condition not met"
biosequence="MVKQIESKTAFQEALDAAGDKLVVVDFSATWCGPCKMIKPFFHSLSEKYSNVIFLEVDVDDCQDVASECEVKCMPTFQFFKKGQKVGEFSGANKEKLEATINELV [TXN]" qualitative_label="Condition not met"
biosequence="MLSRVVLSAAATAAPSLKNAAFLGPGVLQATRTFHTGQPHLVPVPPLPEYGGKVRYGLIPEEFFQFLYPKTGVTGPYVLGTGLILYALSKEIYVISAETFTALSVLGVMVYGIKKYGPFVADFADKLNEQKLAQLEEAKQASIQHIQNAIDTEKSQQALVQKRHYLFDVQRNNIAMALEVTYRERLYRVYKEVKNRLDYHISVQNMMRRKEQEHMINWVEKHVVQSISTQQEKETIAKCIADLKLLAKKAQAQPVM [ATP5F1]" qualitative_label="Condition not met"
biosequence="MASPGCLWLLAVALLPWTCASRALQHLDPPAPLPLVIWHGMGDSCCNPLSMGAIKKMVEKKIPGIYVLSLEIGKTLMEDVENSFFLNVNSQVTTVCQALAKDPKLQQGYNAMGFSQGGQFLRAVAQRCPSPPMINLISVGGQHQGVFGLPRCPGESSHICDFIRKTLNAGAYSKVVQERLVQAEYWHDPIKEDVYRNHSIFLADINQERGINESYKKNLMALKKFVMVKFLNDSIVDPVDSEWFGFYRSGQAKETIPLQETSLYTQDRLGLKEMDNAGQLVFLATEGDHLQLSEEWFYAHIIPFLG [PPT1]" qualitative_label="Condition met"
biosequence="MAEGNHRKKPLKVLESLGKDFLTGVLDNLVEQNVLNWKEEEKKKYYDAKTEDKVRVMADSMQEKQRMAGQMLLQTFFNIDQISPNKKAHPNMEAGPPESGESTDALKLCPHEEFLRLCKERAEEIYPIKERNNRTRLALIICNTEFDHLPPRNGADFDITGMKELLEGLDYSVDVEENLTARDMESALRAFATRPEHKSSDSTFLVLMSHGILEGICGTVHDEKKPDVLLYDTIFQIFNNRNCLSLKDKPKVIIVQACRGANRGELWVRDSPASLEVASSQSSENLEEDAVYKTHVEKDFIAFCSSTPHNVSWRDSTMGSIFITQLITCFQKYSWCCHLEEVFRKVQQSFETPRAKAQMPTIERLSMTRYFYLFPGN [CASP4]" qualitative_label="Condition met"

(Q) # bool: thermal stability score of MGRLDGKVIILTAAAQGIGQAAALAFAREGAKVIATDINESKLQELEKYPGIQTRVLDVTKKKQIDQFANEVERLDVLFNVAGFVHHGTVLDCEEKDWDFSMNLNVRSMYLMIKAFLPKMLAQKSGNIINMSSVASSVKGVVNRCVYSTTKAAVIGLTKSVAADFIQQGIRCNCVCPGTVDTPSLQERIQARGNPEEARNDFLKRQKTGRFATAEEIAMLCVYLASDESAYVTGNPVIIDGGWSL [BDH2] >= 0.02
(A) Condition met

(Q) Reported thermal stability score at or above 0.02? MAAVSGLVRRPLREVSGLLKRRFHWTAPAALQVTVRDAINQGMDEELERDEKVFLLGEEVAQYDGAYKVSRGLWKKYGDKRIIDTPISEMGFAGIAVGAAMAGLRPICEFMTFNFSMQAIDQVINSAAKTYYMSGGLQPVPIVFRGPNGASAGVAAQHSQCFAAWYGHCPGLKVVSPWNSEDAKGLIKSAIRDNNPVVVLENELMYGVPFEFPPEAQSKDFLIPIGKAKIERQGTHITVVSHSRPVGHCLEAAAVLSKEGVECEVINMRTIRPMDMETIEASVMKTNHLVTVEGGWPQFGVGAEICARIMEGPAFNFLDAPAVRVTGADVPMPYAKILEDNSIPQVKDIIFAIKKTLNI [PDHB]
(A) Condition not met

(Q) Could you please find out whether MAHAPARCPSARGSGDGEMGKPRNVALITGITGQDGSYLAEFLLEKGYEVHGIVRRSSSFNTGRIEHLYKNPQAHIEGNMKLHYGDLTDSTCLVKIINEVKPTEIYNLGAQSHVKISFDLAEYTADVDGVGTLRLLDAVKTCGLINSVKFYQASTSELYGKVQEIPQKETTPFYPRSPYGAAKLYAYWIVVNFREAYNLFAVNGILFNHESPRRGANFVTRKISRSVAKIYLGQLECFSLGNLDAKRDWGHAKDYVEAMWLMLQNDEPEDFVIATGEVHSVREFVEKSFLHIGKTIVWEGKNENEVGRCKETGKVHVTVDLKYYRPTEVDFLQGDCTKAKQKLNWKPRVAFDELVREMVHADVELMRTNPNA [GMDS] has thermal stability score that meets 0.02 or exceeds it?
(A) Condition not met

(Q) State whether the measured thermal stability score reaches 0.02, counting equality as reaching it, for MADDQGCIEEQGVEDSANEDSVDAKPDRSSFVPSLFSKKKKNVTMRSIKTTRDRVPTYQYNMNFEKLGKCIIINNKNFDKVTGMGVRNGTDKDAEALFKCFRSLGFDVIVYNDCSCAKMQDLLKKASEEDHTNAACFACILLSHGEENVIYGKDGVTPIKDLTAHFRGDRCKTLLEKPKLFFIQACRGTELDDGIQADSGPINDTDANPRYKIPVEADFLFAYSTVPGYYSWRSPGRGSWFVQALCSILEEHGKDLEIMQILTRVNDRVARHFESQSDDPHFHEKKQIPCVVSMLTKELYFSQ [CASP7]
(A) Condition not met

###

Test system: HeLa Kyoto;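 note: synchronized HeLa Kyoto cells, proteins quantified by TMT10plex mass spectrometry, three biological replicates, mitosis taken 0.5 h after nocodazole release, G1/S directly after double thymidine block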
experimental details: thermal stability score vs G1/S (z-score of summed log2 fold changes over temperatures); higher = more thermally stable than in G1/S
condition description: cell cycle stage: early G1 (4.5 h after nocodazole release)
Assign condition met whenever thermal stability score does not fall below -0.004; assign condition not met whenever it does.

Worked cases, answers included:
biosequence="MVGYDPKPDGRNNTKFQVAVAGSVSGLVTRALISPFDVIKIRFQLQHERLSRSDPSAKYHGILQASRQILQEEGPTAFWKGHVPAQILSIGYGAVQFLSFEMLTELVHRGSVYDAREFSVHFVCGGLAACMATLTVHPVDVLRTRFAAQGEPKVYNTLRHAVGTMYRSEGPQVFYKGLAPTLIAIFPYAGLQFSCYSSLKHLYKWAIPAEGKKNENLQNLLCGSGAGVISKTLTYPLDLFKKRLQVGGFEHARAAFGQVRRYKGLMDCAKQVLQKEGALGFFKGLSPSLLKAALSTGFMFFSYEFFCNVFHCMNRTASQR [SLC25A19]" qualitative_label="condition not met"
biosequence="MADSELQLVEQRIRSFPDFPTPGVVFRDISPVLKDPASFRAAIGLLARHLKATHGGRIDYIAGLDSRGFLFGPSLAQELGLGCVLIRKRGKLPGPTLWASYSLEYGKAELEIQKDALEPGQRVVVVDDLLATGGTMNAACELLGRLQAEVLECVSLVELTSLKGREKLAPVPFFSLLQYE [APRT]" qualitative_label="condition met"
biosequence="MDPARKAGAQAMIWTAGWLLLLLLRGGAQALECYSCVQKADDGCSPNKMKTVKCAPGVDVCTEAVGAVETIHGQFSLAVRGCGSGLPGKNDRGLDLHGLLAFIQLQQCAQDRCNAKLNLTSRALDPAGNESAYPPNGVECYSCVGLSREACQGTSPPVVSCYNASDHVYKGCFDGNVTLTAANVTVSLPVRGCVQDEFCTRDGVTGPGFTLSGSCCQGSRCNSDLRNKTYFSPRIPPLVRLPPPEPTTVASTTSVTTSTSAPVRPTSTTKPMPAPTSQTPRQGVEHEASRDEEPRLTGGAAGHQDRSNSGQYPAKGGPQQPHNKGCVAPTAGLAALLLAVAAGVLL [LYPD3]" qualitative_label="condition not met"
biosequence="MFVELNNLLNTTPDRAEQGKLTLLCDAKTDGSFLVHHFLSFYLKANCKVCFVALIQSFSHYSIVGQKLGVSLTMARERGQLVFLEGLKSAVDVVFQAQKEPHPLQFLREANAGNLKPLFEFVREALKPVDSGEARWTYPVLLVDDLSVLLSLGMGAVAVLDFIHYCRATVCWELKGNMVVLVHDSGDAEDEENDILLNGLSHQSHLILRAEGLATGFCRDVHGQLRILWRRPSQPAVHRDQSFTYQYKIQDKSVSFFAKGMSPAVL [ELP6]" qualitative_label="condition not met"
biosequence="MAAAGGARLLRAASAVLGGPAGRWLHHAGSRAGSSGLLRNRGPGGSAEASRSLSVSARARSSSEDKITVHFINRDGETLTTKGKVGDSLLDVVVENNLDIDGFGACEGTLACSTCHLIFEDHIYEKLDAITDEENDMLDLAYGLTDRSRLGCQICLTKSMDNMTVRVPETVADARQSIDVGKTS [FDX1]" qualitative_label="condition not met"

(Q) Does the reported thermal stability score for MSAKDERAREILRGFKLNWMNLRDAETGKILWQGTEDLSVPGVEHEARVPKKILKCKAVSRELNFSSTEQMEKFRLEQKVYFKGQCLEEWFFEFGFVIPNSTNTWQSLIEAAPESQMMPASVLTGNVIIETKFFDDDLLVSTSRVRLFYV [PDE6D] fall at or above the -0.004 mark?
(A) condition met

(Q) thermal stability score >= -0.004 for MSFLQDPSFFTMGMWSIGAGALGAAALALLLANTDVFLSKPQKAALEYLEDIDLKTLEKEPRTFKAKELWEKNGAVIMAVRRPGCFLCREEAADLSSLKSMLDQLGVPLYAVVKEHIRTEVKDFQPYFKGEIFLDEKKKFYGPQRRKMMFMGFIRLGVWYNFFRAWNGGFSGNLEGEGFILGGVFVVGSGKQGILLEHREKEFGDKVNLLSVLEAAKMIKPQTLASEKK [FAM213A] ?
(A) condition not met

(Q) Hello, I need to know if MEDTPLVISKQKTEVVCGVPTQVVCTAFSSHILVVVTQFGKMGTLVSLEPSSVASDVSKPVLTTKVLLGQDEPLIHVFAKNLVAFVSQEAGNRAVLLAVAVKDKSMEGLKALREVIRVCQVW [PSMG3] has measured thermal stability score not below -0.004. Thanks!
(A) condition not met

(Q) Answer whether thermal stability score of METLYRVPFLVLECPNLKLKKPPWLHMPSAMTVYALVVVSYFLITGGIIYDVIVEPPSVGSMTDEHGHQRPVAFLAYRVNGQYIMEGLASSFLFTMGGLGFIILDRSNAPNIPKLNRFLLLFIGFVCVLLSFFMARVFMRMKLPGYLMG [OSTC] is greater than or equal to -0.004.
(A) condition met

(Q) // inclusive: thermal stability score at least -0.004? input: MDMLDPGLDPAASATAAAAASHDKGPEAEEGVELQEGGDGPGAEEQTAVAITSVQQAAFGDHNIQYQFRTETNGGQVTYRVVQVTDGQLDGQGDTAGAVSVVSTAAFAGGQQAVTQVGVDGAAQRPGPAAASVPPGPAAPFPLAVIQNPFSNGGSPAAEAVSGEARFAYFPASSVGDTTAVSVQTTDQSLQAGGQFYVMMTPQDVLQTGTQRTIAPRTHPYSPKIDGTRTPRDERRRAQHNEVERRRRDKINNWIVQLSKIIPDCNADNSKTGASKGGILSKACDYIRELRQTNQRMQETFKEAERLQMDNELLRQQIEELKNENALLRAQLQQHNLEMVGEGTRQ [USF2]
(A) condition not met

(Q) For this sequence, is measured thermal stability score -0.004 or higher? MESGAYGAAKAGGSFDLRRFLTQPQVVARAVCLVFALIVFSCIYGEGYSNAHESKQMYCVFNRNEDACRYGSAIGVLAFLASAFFLVVDAYFPQISNATDRKYLVIGDLLFSALWTFLWFVGFCFLTNQWAVTNPKDVLVGADSVRAAITFSFFSIFSWGVLASLAYQRYKAGVDDFIQNYVDPTPDPNTAYASYPGASVDNYQQPPFTQNAETTEGYQPPPVY [SYNGR2]
(A) condition not met

(Q) Decide: thermal stability score of MLDSLLALGGLVLLRDSVEWEGRSLLKALVKKSALCGEQVHILGCEVSEEEFREGFDSDINNRLVYHDFFRDPLNWSKTEEAFPGGPLGALRAMCKRTDPVPVTIALDSLSWLLLRLPCTTLCQVLHAVSHQDSCPGDSSSVGKVSVLGLLHEELHGPGPVGALSSLAQTEVTLGGTMGQASAHILCRRPRQRPTDQTQWFSILPDFSLDLQEGPSVESQPYSDPHIPPVDPTTHLTFNLHLSKKEREARDSLILPFQFSSEKQQALLRPRPGQATSHIFYEPDAYDDLDQEDPDDDLDI [ELP5] >= -0.004?
(A) condition not met
